# Tested on: GB4
# experiment summary: qHTS profiling for inhibitors of Plasmodium falciparum proliferation (AID 504749); also: nearly all actives have a fitted effect of over 60% in size
# measurement parameters: P. falciparum in erythrocytes, SYBR Green DNA, 72 h; series mostly up to 28.7 µM
Records with an inconclusive call do not appear. Activity calls are given as the source filed them. Calls follow the shape of the dose curve; as a rule, active = well fitted inhibition curve with a large enough effect; inconclusive = small, poorly fitted or top-dose-only effect; inactive = flat fitted curve, though single readings scatter.
Outcomes: True for active, False for inactive

molecule: O=C1CSC2(CCN(CCCN3c4ccccc4Sc4ccc(Cl)cc43)CC2)N1
class label: True
//
molecule: COc1ccc2c3c1O[C@H]1C[C@@H](O)C=C[C@@]31CCN(C)C2
class label: False
//
molecule: O=C(O)c1cc(O)c2c(c1)[O][Bi][O]2
class label: False
//
molecule: C=C1C(=CC=C2CCC[C@@]3(C)[C@@H]2CC[C@H]3[C@H](C)CCCC(C)C)C[C@@H](O)C[C@@H]1O
class label: False
//
molecule: COC(C(=O)C(O)C(C)O)C1Cc2cc3cc(OC4CC(OC5CC(O)C(O)C(C)O5)C(O)C(C)O4)c(C)c(O)c3c(O)c2C(=O)C1OC1CC(OC2CC(OC3CC(C)(O)C(O)C(C)O3)C(O)C(C)O2)C(O)C(C)O1 (stereo unspecified)
class label: True
//
molecule: CC(C)=O
class label: False
//
molecule: CCN(CC)CCOc1ccc(-c2nc3cc(Cl)ccc3s2)cc1
class label: True
//
molecule: CC(O)CO (stereo unspecified)
class label: False
//
molecule: COc1cc(-c2ccc(-[n+]3nc(-c4ccccc4)nn3-c3ccc([N+](=O)[O-])cc3)c(OC)c2)ccc1-[n+]1nc(-c2ccccc2)nn1-c1ccc([N+](=O)[O-])cc1
class label: True
//
molecule: CCCCCCCCCCCCCC[n+]1ccc(C)cc1
class label: True
//
molecule: CCCC(=O)O[C@]1(C(=O)CCl)[C@H](C)C[C@@H]2[C@H]3CCC4=CC(=O)C=C[C@]4(C)[C@@]3(F)C(=O)C[C@@]21C
class label: True
//
molecule: CC1=C(/C=C/C(C)=C/C=C/C(C)=C/C=C/C=C(C)/C=C/C=C(C)/C=C/C2=C(C)C(=O)CCC2(C)C)C(C)(C)CCC1=O
class label: False
//
molecule: O=S(=O)(O)c1ccc2c(N=Nc3ccc(S(=O)(=O)O)c4ccccc34)c(O)c(S(=O)(=O)O)cc2c1
class label: False
//
molecule: O=C(O)CCC(=O)C(=O)O
class label: False
//
molecule: CCCCCCCCCCCC[n+]1ccc2ccccc2c1
class label: True
//
molecule: O=C(O)c1cc(=O)c2c3nc4ccccc4oc-3cc(=O)c2[nH]1
class label: True
//
molecule: CC1=CCC(C(C)(C)O)CC1 (stereo unspecified)
class label: False
//
molecule: Cc1cc(C(=O)NNCc2ccccc2)no1
class label: False
//
molecule: C[C@H]1C[C@H]2[C@@H]3CCC4=CC(=O)C=C[C@]4(C)[C@@]3(F)[C@@H](O)C[C@]2(C)[C@@]1(O)C(=O)CO
class label: False
//
molecule: COC(=O)[C@H]1[C@H]2C[C@@H]3c4[nH]c5ccccc5c4CCN3C[C@H]2C[C@@H](OC(=O)c2cc(OC)c(OC)c(OC)c2)[C@@H]1OC
class label: True
//
molecule: Nc1c(N=Nc2ccc(-c3ccc(N=Nc4cc(S(=O)(=O)O)c5ccccc5c4N)cc3)cc2)cc(S(=O)(=O)O)c2ccccc12
class label: False

Recorded values, source PubChem BioAssay (NCATS).
